Reference for the values: PubChem BioAssay

Entries and their inhibition
Target: L-lactate dehydrogenase (Plasmodium falciparum (isolate CDC / Honduras))
Test: PfLDH activity inhibition – cell lysate, 3D7 strain, counter-screen for P. falciparum growth inhibition project (AID 2304);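 also: 0% = vehicle and 100% = reference inhibitor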
Details: P. falciparum 3D7 crude extract, LDH APAD/NBT absorbance; at 2 µM; stronger effect = higher value
All answers are understood in %, so give the number only.

{"columns": ["molecule", "valueUnits", "measurement"],
 "data": [
  ["c1ccc(CNc2nc(NCCc3cnc[nH]3)nc(N3CCCC4CCCCC43)n2)cc1 (stereo not given)", "%", -3],
  ["CCN(CC)c1ccc2nc(N)nc(N)c2c1", "%", 2],
  ["O=C(NCC(c1ccc(C(F)(F)F)cc1)N1CCCC1)c1cc(-c2ccncc2)c(-c2cccc(O)c2)o1 (stereo not given)", "%", 0]
]}

Query :: Look up L-lactate dehydrogenase (Plasmodium falciparum (isolate CDC / Honduras)) data: inhibition of COc1ccc2c(CNCCCCCCNCc3c(OC)ccc4cc(OC)ccc34)c(OC)ccc2c1 , then report it.
Result :: -7

Query :: Look up L-lactate dehydrogenase (Plasmodium falciparum (isolate CDC / Honduras)) data: inhibition of COc1ccc(Cl)cc1N1CCN(CCCNC(=O)c2ccc(-c3nc4c(C)cccc4[nH]3)s2)CC1 , then report it.
Result :: 5

* * *

Molecular target: L-lactate dehydrogenase (Plasmodium falciparum (isolate CDC / Honduras))
Assay: PfLDH activity inhibition – cell lysate, 3D7 strain, counter-screen for P. falciparum growth inhibition project (AID 2304);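 also: 0% = vehicle and 100% = reference inhibitor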
Settings: P. falciparum 3D7 crude extract, LDH APAD/NBT absorbance; at 2 µM; stronger effect = higher value
Activity calls are given as the source filed them. How the calls were made is not given here.
Entries and their inhibition

Query :: Provide measured inhibition value, entry: CC(C)c1ccc2c(c1)C(=O)c1ccc(C(=O)O)cc1S2(=O)=O
Result :: -4% (inactive)

Query :: Provide measured inhibition value, entry: Cc1ccc(Nc2nccc(Nc3ccc4c(c3)nc(Nc3cc(C(C)(C)C)on3)n4C)n2)cc1S(C)(=O)=O
Result :: -5% (inactive)

Query :: Provide measured inhibition value, entry: COc1ccc2nc(C)cc(Nc3ccc(N4CCN(C)CC4)cc3)c2c1
Result :: -1% (inactive)

Query :: Provide measured inhibition value, entry: CC(=O)Oc1c(Br)c(C)nc(C)c1-c1ccc(Oc2ccc(OC(F)(F)F)cc2)cc1
Result :: -4% (inactive)

Query :: Provide measured inhibition value, entry: CCc1cc(-c2onc(C(F)(F)F)c2-c2ccccc2)c(O)cc1OC
Result :: -2% (inactive)

Query :: Provide measured inhibition value, entry: N#Cc1ccc2c(c1)CCN(CCC1CCC(NC(=O)/C=C/c3cnc4ccccc4c3)CC1)CC2 (stereo unspecified)
Result :: -1% (inactive)

* * *

Experiment: rescue of polyQ-huntingtin neuronal dysfunction in worms, whole organism, C. elegans mechanosensory neurons, N-terminal huntingtin (AID 1599)
Conditions: touch response, stronger effect = higher value
Results with a measured potency or affinity are listed apart.
valueType: rescue above control
Answer field: number only, no words.

Previously resolved entries follow.
{"columns": ["compound", "rescue above control"],
 "data": [
  ["C[N+]1(C)C2CC[C@H]1CC(OC(=O)C(O)c1ccccc1)C2 (stereo partly drawn)", 12.1],
  ["CC(COc1ccccc1)NC(C)[C@H](O)c1ccc(O)cc1 (stereo partly drawn)", -0.43],
  ["NC[C@@H]1O[C@H](O[C@@H]2[C@@H](CO)OC(O[C@@H]3[C@@H](O)[C@H](N)C[C@H](N)[C@H]3OC3O[C@H](CN)[C@@H](O)[C@H](O)[C@H]3N)[C@@H]2O)[C@H](N)[C@@H](O)[C@@H]1O (stereo partly drawn)", 4.93],
  ["CO/N=C(/C(=O)N[C@@H]1C(=O)N2C(C(=O)O)=C(COC(C)=O)CS[C@H]12)c1csc(N)n1", 2.83],
  ["C=C(C)[C@H]1CC=C(C(=O)O)CC1", -1.74]
]}

Query :: Provide measured rescue above control value, entry: CC(=O)OCC(=O)[C@@]1(O)CCC2C3CCC4=CC(=O)CC[C@]4(C)C3C(=O)C[C@@]21C (stereo partly drawn)
Result :: -2.34

Query :: Provide measured rescue above control value, entry: C[C@]12CCC3c4ccc(O)cc4CCC3C1C[C@@H](O)[C@@H]2O (stereo partly drawn)
Result :: 0.35

Query :: Provide measured rescue above control value, entry: CCN1CCN(C(=O)NC(C(=O)NC2C(=O)N3C(C(=O)O)=C(CSc4nnnn4C)CSC23)c2ccc(O)cc2)C(=O)C1=O (stereo not drawn)
Result :: -10

* * *

Tested on: R275C/beta4
Test: modulators of BK channel variants, profiling panel, selectivity assay, cell-based, U2OS BacMam, thallium flux, beta subunits (AID 1259406);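 also: initial slope of Thallos dye fluorescence rise after thallium is added; log ratio against the mean of 0.3% DMSO vehicle wells on the same plate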
Conditions: at 30 µM
valueType: log fold change Tl+ flux
Answer field: number only, no words.

Previously resolved entries follow.
{"columns": ["compound", "log fold change Tl+ flux"],
 "data": [
  ["NC(=NC(=O)c1cccs1)c1cccs1", 0.0555],
  ["Cc1ccc(C(=O)c2c(-c3ccccc3)cc(-c3ccccc3)c3c2C(=O)CCC3)cc1", -0.00364],
  ["CCOC(=O)c1c[nH]n2c(=O)c3c(nc12)CCC3", 0.0387]
]}

Query :: Provide measured log fold change Tl+ flux value, entry: Cc1ccccc1S(=O)(=O)NCc1ccc(N2CCN(C)CC2)cc1
Result :: 0.0244

Query :: Provide measured log fold change Tl+ flux value, entry: Cc1ccc(S(N)(=O)=O)c(I)c1
Result :: 0.00339

Query :: Provide measured log fold change Tl+ flux value, entry: COC(=O)c1ccc(S(=O)(=O)NNc2ncnc3cc(C(C)(C)C)sc23)n1C
Result :: -0.0156

Query :: Provide measured log fold change Tl+ flux value, entry: Cc1onc(-c2ccccc2)c1N1C(=O)CCN(C(C)C)C1=O
Result :: -0.0122

Query :: Provide measured log fold change Tl+ flux value, entry: CC(CCCCC(=O)Nc1ccc(C(F)(F)F)cc1)NCCc1cnc[nH]1 (stereo not drawn)
Result :: 0.0332

Query :: Provide measured log fold change Tl+ flux value, entry: O=C(O)COCCN1CCN([C@H](c2ccccc2)c2ccc(Cl)cc2)CC1
Result :: 0.0472

Query :: Provide measured log fold change Tl+ flux value, entry: COc1cccc(C(=O)Nc2cc(F)c(Br)cc2F)c1
Result :: -0.0731

Query :: Provide measured log fold change Tl+ flux value, entry: COC(=O)c1cc(-c2nc(-c3ccc(Cl)cc3Cl)cs2)c(SC)s1
Result :: -0.0197

Query :: Provide measured log fold change Tl+ flux value, entry: N#Cc1cccc(CSc2ncnc(N)n2)c1
Result :: 0.019

Query :: Provide measured log fold change Tl+ flux value, entry: Cc1ccc(S(=O)(=O)NC(=O)NCc2csc3ccc(Cl)cc23)cc1
Result :: 0.329

Query :: Provide measured log fold change Tl+ flux value, entry: Clc1ccc(-c2cnc(-c3ccc(Cl)cc3)o2)cc1
Result :: 0.00237

Query :: Provide measured log fold change Tl+ flux value, entry: CC(=O)[C@@]1(O)CC[C@H]2[C@@H]3C[C@H](C)C4=CC(=O)CC[C@]4(C)[C@H]3CC[C@@]21C
Result :: 0.0101

Query :: Provide measured log fold change Tl+ flux value, entry: O=C(CN1CCOCC1)Nc1ccccc1Sc1nccc(C(F)(F)F)n1
Result :: 0.0162

Query :: Provide measured log fold change Tl+ flux value, entry: CN(Cc1nnc(-c2ccc3ccccc3c2)o1)c1nnc(C(F)(F)F)s1
Result :: -0.0251

* * *

Assay: differential killing of epithelial or mesenchymal cells, primary screen, imaging, PC-3E GFP, TEM4-18 mCherry, co-culture (AID 1345086);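 also: cells exposed to compound for 72 h before imaging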
Settings: imaging cell counts, measured here: mesenchymal TEM4-18 mCherry cell survival, at 1 µM
valueType: normalised cell number
Answer field: number only, no words.

Previously resolved entries follow.
{"columns": ["molecule", "normalised cell number"],
 "data": [
  ["CC(=O)OCC(=O)[C@@]1(O)CCC2C3CCC4=CC(=O)C=C[C@]4(C)[C@@]3(F)[C@@H](O)C[C@@]21C (stereo partly drawn)", 0.95],
  ["CC1=CO[C@]2(C1=O)[C@H]1C(=O)O[C@]3(C[C@@H]2C)C(C)=CC(=O)O[C@]13O", 0.99]
]}

Query :: Provide measured normalised cell number value, entry: CO[C@H]1CC(O[C@@H]2/C(C)=C/C[C@@H]3C[C@@H](C[C@]4(C=C[C@H](C)[C@@H](C5CCCCC5)O4)O3)OC(=O)[C@@H]3C=C(C)[C@@H](O)C4OC/C(=C\C=C\[C@@H]2C)[C@]43O)O[C@@H](C)C1O[C@H]1C[C@H](OC)[C@@H](O)[C@H](C)O1 (stereo partly drawn)
Result :: 1.1

* * *

Assay: LFS_MB_P medulloblastoma growth inhibition, cell-based, chromothripsis tumors, cisplatin or BGB combos (AID 1671449);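 also: cells exposed for 96 hours; 0% = vehicle DMSO and 100% = killing by high DMSO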
Settings: LFS_MB_P medulloblastoma cells, measured here: combination with cisplatin, at 0.5 µM, stronger effect = higher value
Entries and their inhibition
All answers are understood in %, so give the number only.

Previously resolved entries follow.
{"columns": ["compound", "inhibition (%)"],
 "data": [
  ["NC(=O)c1ncn(C2OC(CO)C(O)C2O)n1 (stereo unspecified)", -6.01],
  ["O=c1cc(-c2cccc3c2Sc2ccccc2S3)oc(N2CCOCC2)c1", 108],
  ["O=C(Nc1ccncc1)c1cc([N+](=O)[O-])ccc1Cl", -30.4],
  ["O=c1ncccn1[C@@H]1O[C@H](CO)[C@@H](O)[C@H]1O", 116],
  ["O=c1[nH]c(-c2ccc(C(F)(F)F)cc2)nc2c1CSCC2", -36.1]
]}

Turning now to a further compound:
Query :: Provide measured inhibition value, entry: Cc1c(-c2cnccn2)ssc1=S
Result :: -32.1
